# protocol: purified protein yield per well (BCA); higher = higher soluble expression
Answer each item with its documented purified protein yield per well.

Entry IYTMVDTLSLHDALPISQYRKIPDSKYHLFIKRFYKGFLNLSLWEVRYMSNRLFRARRTVFSVLILFAFMISFVAAIPGVSYASPPIVRYDYAPGKYSGNGPYSYSTYQLPGWSHGATVYYPTNASAPFSGIVFCPPYTGTQIMFRDWGPFFASHGIVLVTMDTSSILISVDERAVEQRTVLNLLKAENSRSGSPLYQKLDTDRVGAMGWSMGGGATWINSAEYPGLKTAMSLAGHNLTAININSKGFGTQCPTIIFCGALDTTYLGGMLQSETVYYNIPSGVPKVYYEVGTAGHFVWGGPTDANDHVAELALAFQKTFLDGDDRWEGFIEKPRFDYLSTFRSRN [TEP185] — recorded purified protein yield per well = < 25 µg

The sequence QSAGGNPYAIGPDPTASSLEASSGPFGYTSTTIPSSEATGYGGGTVYYPANVNIATGGIVVVPGYGATQSNISWWGPRLASNGFVVYTIDTTNIYDLPAQRAKEIMAAVAQLKTFSTTTGNEIYGKVDTNRIGIMGGSFGGGGTLIAETTHPQLKAAIPFVPKIASGNPDLSKITIPTLIIGCQEDQVAPPKSYAIPYYSAIPEQNHKAYLEISNGQHLCASTQGSDQNKPIIGKYGVAWMKRFIDNDSRYNPYLCGSPHQTDVSNSTVISGYKDTCPY [DP020] showed purified protein yield per well equal to < 25 µg

Noted for QSYVHGPDPTTAALETTGPYAVSNTKIAAPSGYGGGTVYYPTTNTEGAFAVVSVTPGFTEKQSAINWLGPLLASHGFVVVTIDTKTALDAPSSRAKQMIAALKQVSGLSANSTSPFAGRVDGTRQAVMGHSMGGGGSLDAARDNPTLKASIPMAPWETVKNYSTMTVPTLIVSCESDTIAPVASHANKFYDSFTPTLNKALLEMKGVGHSCTNSTTSAALKAVIGKYSISWLKRFADNDNRYSDFLCGASHQADVSGSLISTYKENCPY [DP066] : its purified protein yield per well reads < 25 µg

# purified protein yield per well (sequence: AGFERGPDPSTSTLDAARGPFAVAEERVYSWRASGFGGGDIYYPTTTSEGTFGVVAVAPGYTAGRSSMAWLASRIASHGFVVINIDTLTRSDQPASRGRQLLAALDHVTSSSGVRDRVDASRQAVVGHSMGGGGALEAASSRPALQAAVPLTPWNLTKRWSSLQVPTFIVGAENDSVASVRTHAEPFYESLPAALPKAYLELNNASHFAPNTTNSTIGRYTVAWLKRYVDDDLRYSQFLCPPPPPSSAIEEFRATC [DP087] ) is 208 µg

purified protein yield per well measured on QVGPAPSSSSLNATAGPFAVSTSNVILARGFGGGTIYYPSTSGLYGVVAISPGFTATESSVAWLGRRMATHGLVVITINTNTTLDQPASRATQLMAALNYVVNSASSTVRSRVDSTKLAVAGHSMGGGGALIAAEDNPTLKASLPLTPWNLSTSFTRVRVPTLIVGADGDSVASVTVHARPFYASLPASTFKAYAELNLASHFTPNSTNTPIGRYGVAWMKRFVDADTRYSPFLCGAEHNAYNTALVFDRYNQNCPY [ESM153] = < 25 µg

* * *

# protocol: PET hydrolysis, aromatic products released after 48 h (umol product/mg enzyme); higher = more PET depolymerization activity
# condition.description: substrate: cryPow; 60 °C; pH 4.5
measure.name: PET hydrolysis

Record summary for AGNPYQRGPDPTLASVAASRGTFATAQVSVPPGNGFNGGTIYYPTDTTQGTWGAVAIVPGYTALFANEEAWMGPWLASFGFVVIGIETNSRNDFDTARGTQLLAALDYLTQKSPVRDRVDSARLGVIGHSMGGGGVVYATEHRPSLKAAVALAPFSPSQDMSTDHVPTMVMAGQNDTVVTPSYLDGLYATMPASAQSDFVQLAGADHVAYTHPNTTEMRLLIPWLKIFLDDDTRYTQFLCPLKDSTGVSMYRAKCPYVPPGGPTTSPTPTTTPTPPDGGACSATYRTVNSWSGGYQGEITVTAGGAAIDGWTVRWSLGGGQTVTQVWNGTLSTSGSTASVANASYNGSLQASASTTFGFLANGTPSTPALTCSSP [ESM084] : reported PET hydrolysis = < 3
